Provenance of the data: patent US9750708B2

- TEST SUMMARY: Plasma cysteamine after delivery of cysteamine through a nasoenteric tube into stomach, small intestine or cecum
- Assay type: in vivo
- TEST SETTINGS: human, other: infused through nasoenteric tube into stomach, 10 mg/kg/dose of base, Mean plasma cysteamine Cmax, combined cystinosis and control subjects, delivery into stomach
MEASURED QUANTITY: Cmax
Please state the value followed by its unit.

Problem: Need Cmax, item `NCCS`
Solution: 37.8 µM

* * *

- TEST SUMMARY: Plasma cysteamine after delivery of cysteamine through a nasoenteric tube into stomach, small intestine or cecum
- Assay type: in vivo
- TEST SETTINGS: human, other: infused through nasoenteric tube into stomach, 10 mg/kg/dose of base, Mean plasma cysteamine Cmax, control subjects, delivery into stomach
MEASURED QUANTITY: Cmax (µM)
Field format: number, assumed µM, no unit text.

Problem: What value of Cmax has been recorded for this entry: `NCCS`
Solution: 39.5
